Data provenance is BigSolDB 2.1.

Conditions: in n-pentane, 293.2 K
measure: solubility (mole fraction)

                                        smi                     measure  assay_result
0  CN1c2ccccc2C(=O)N2CCc3c([nH]c4ccccc34)[C@H]21  solubility (mole fraction)      2.92e-06

* * *

Settings: in n-pentane, 303.2 K
measure: solubility (mole fraction)

In [3]: df
Out[3]:
                                        smi  assay_result
0  CN1c2ccccc2C(=O)N2CCc3c([nH]c4ccccc34)[C@H]21       4.7e-06

* * *

Conditions: in methanol, 313.2 K
measure: solubility (mole fraction)

In [3]: df
Out[3]:
                                        smi                     measure  assay_result
0  CN1c2ccccc2C(=O)N2CCc3c([nH]c4ccccc34)[C@H]21  solubility (mole fraction)       0.00011
